Each entry below carries its recorded Mean % WT Binding.
target: human CD33 Q24H (human, UniProt P20138 18-364); experiment: flow cytometry, mutant on cells, IgG
Sequence (P20138 18-364 Q24H limits assumed): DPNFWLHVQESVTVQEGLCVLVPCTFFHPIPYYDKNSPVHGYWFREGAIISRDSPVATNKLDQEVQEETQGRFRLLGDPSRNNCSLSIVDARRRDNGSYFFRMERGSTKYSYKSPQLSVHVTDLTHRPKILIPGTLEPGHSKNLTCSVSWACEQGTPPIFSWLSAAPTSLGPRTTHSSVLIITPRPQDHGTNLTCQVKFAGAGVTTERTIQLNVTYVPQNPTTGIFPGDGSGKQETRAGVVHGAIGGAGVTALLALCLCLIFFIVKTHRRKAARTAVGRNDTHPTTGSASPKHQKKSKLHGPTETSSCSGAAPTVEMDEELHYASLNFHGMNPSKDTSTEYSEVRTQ
Give the value in % WT binding but do not write % WT binding after it.

binder	reading
Refmab #1 (antibody, human IgG1, V domains shown, Tested in IgG format; human IgG1 (Absolute Antibody hP67.6, Cat. No. Ab00283-10.0); also called hP67.6) VH: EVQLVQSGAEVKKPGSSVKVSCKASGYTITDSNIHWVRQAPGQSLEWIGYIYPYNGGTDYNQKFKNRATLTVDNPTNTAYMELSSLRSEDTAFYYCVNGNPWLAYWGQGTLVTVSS VL: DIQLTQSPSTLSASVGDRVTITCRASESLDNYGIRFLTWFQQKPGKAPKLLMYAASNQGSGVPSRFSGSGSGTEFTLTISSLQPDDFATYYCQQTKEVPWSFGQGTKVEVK	95.3
Refmab #4 (antibody, human IgG1, V domains shown, Tested in IgG format; human IgG1 Fc silent (PG-LALA)) VH: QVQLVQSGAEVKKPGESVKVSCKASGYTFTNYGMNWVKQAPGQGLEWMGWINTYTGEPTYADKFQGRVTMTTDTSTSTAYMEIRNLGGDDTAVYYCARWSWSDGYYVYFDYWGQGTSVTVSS VL: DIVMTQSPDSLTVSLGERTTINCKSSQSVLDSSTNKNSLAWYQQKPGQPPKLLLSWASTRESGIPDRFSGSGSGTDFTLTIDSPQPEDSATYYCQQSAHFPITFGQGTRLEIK	93.2
Refmab #3 (antibody, human IgG1, V domains shown, Tested in IgG format; human IgG1 Fc silent (PG-LALA)) VH: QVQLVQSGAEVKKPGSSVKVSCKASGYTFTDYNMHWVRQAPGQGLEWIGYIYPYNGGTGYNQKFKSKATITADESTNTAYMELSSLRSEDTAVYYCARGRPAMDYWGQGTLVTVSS VL: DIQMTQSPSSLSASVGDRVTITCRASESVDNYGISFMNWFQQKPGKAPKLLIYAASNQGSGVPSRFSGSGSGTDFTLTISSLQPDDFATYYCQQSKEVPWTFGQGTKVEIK	7.1

Moving on to the next binder.
Which measured Mean % WT Binding value corresponds to Refmab #2 (antibody, human IgG1, V domains shown, Tested in IgG format; human IgG1 Fc silent (PG-LALA)) VH: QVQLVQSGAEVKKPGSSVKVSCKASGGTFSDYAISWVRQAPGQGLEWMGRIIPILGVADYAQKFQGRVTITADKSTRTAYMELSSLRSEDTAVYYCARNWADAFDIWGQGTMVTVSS VL: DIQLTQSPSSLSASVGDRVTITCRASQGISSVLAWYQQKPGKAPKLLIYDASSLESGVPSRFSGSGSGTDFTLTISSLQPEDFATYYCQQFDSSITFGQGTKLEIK ?
101
